Source of measurements: patent US20210246204A1

subject of test: T1, histidine-tagged human Siglec-7 (NovoProtein) (human, UniProt Q9Y286 19-353)
T1 construct: Bought protein; also called recombinant human Siglec-7; recombinant Siglec-7; not shown: histidine tag
assay text: BLI, antibody captured
readout name: koff
Report field: quantity (unit follows the number).

Below, 3 binders whose answers are already recorded.
{"columns": ["binder", "koff"],
 "data": [
  ["S7AB-H8.14 (antibody, V domains shown) VH: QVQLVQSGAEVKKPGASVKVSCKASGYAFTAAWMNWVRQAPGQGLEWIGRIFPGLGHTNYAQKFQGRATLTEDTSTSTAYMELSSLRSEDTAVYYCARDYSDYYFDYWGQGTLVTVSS VL: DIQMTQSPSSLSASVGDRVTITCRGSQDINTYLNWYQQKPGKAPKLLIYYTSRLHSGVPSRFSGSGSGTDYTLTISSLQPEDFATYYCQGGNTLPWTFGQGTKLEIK", "0.000176 s⁻¹"],
  ["S7AB-H8.44 (antibody, V domains shown) VH: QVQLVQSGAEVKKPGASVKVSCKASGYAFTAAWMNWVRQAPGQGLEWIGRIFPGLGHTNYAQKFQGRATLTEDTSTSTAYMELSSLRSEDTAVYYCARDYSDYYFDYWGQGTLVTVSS VL: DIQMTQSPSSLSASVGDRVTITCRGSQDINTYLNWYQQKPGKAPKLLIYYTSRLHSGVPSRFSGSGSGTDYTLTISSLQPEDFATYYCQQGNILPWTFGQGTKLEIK", "3.71e-05 s⁻¹"],
  ["S7AB-H8.25 (antibody, V domains shown) VH: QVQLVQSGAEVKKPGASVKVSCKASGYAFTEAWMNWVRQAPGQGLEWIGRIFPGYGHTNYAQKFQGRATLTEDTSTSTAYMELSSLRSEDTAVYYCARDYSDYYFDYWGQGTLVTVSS VL: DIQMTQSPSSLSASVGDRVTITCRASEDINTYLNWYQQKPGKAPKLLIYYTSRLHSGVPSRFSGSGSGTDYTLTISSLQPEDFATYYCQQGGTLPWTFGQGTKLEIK", "2.77e-05 s⁻¹"]
]}

Below are 6 binders. Give each one its koff.
1. S7AB-H8.5 (antibody, V domains shown) VH: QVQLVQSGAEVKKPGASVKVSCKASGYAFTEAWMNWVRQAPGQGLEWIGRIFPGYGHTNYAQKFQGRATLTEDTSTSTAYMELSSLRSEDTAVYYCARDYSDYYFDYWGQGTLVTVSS VL: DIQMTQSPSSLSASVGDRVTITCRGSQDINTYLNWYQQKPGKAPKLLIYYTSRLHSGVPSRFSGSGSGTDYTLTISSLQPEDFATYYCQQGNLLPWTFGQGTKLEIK
2. S7AB-H8.21 (antibody, V domains shown) VH: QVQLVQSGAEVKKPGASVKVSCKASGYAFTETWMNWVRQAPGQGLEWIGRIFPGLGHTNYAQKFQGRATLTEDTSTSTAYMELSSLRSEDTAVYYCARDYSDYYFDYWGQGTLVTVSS VL: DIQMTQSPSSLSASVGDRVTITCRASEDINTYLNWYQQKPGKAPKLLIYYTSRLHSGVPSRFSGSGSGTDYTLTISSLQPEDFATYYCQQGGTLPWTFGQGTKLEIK
3. S7AB-H8.7 (antibody, V domains shown) VH: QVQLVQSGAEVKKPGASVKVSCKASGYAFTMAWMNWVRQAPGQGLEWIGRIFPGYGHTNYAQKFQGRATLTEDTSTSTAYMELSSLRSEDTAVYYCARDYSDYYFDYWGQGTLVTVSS VL: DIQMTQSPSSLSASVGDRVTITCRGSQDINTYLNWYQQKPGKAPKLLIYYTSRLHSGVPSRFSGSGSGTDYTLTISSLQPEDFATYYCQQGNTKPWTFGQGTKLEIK
4. S7AB-H8.28 (antibody, V domains shown) VH: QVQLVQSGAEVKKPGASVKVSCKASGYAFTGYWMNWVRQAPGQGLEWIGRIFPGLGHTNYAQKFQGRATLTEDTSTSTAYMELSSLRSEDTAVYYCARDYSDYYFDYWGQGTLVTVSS VL: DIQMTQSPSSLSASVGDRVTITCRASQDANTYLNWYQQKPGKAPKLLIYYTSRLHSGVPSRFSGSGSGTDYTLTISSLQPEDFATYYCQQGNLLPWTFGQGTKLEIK
5. S7AB-H8.34 (antibody, V domains shown) VH: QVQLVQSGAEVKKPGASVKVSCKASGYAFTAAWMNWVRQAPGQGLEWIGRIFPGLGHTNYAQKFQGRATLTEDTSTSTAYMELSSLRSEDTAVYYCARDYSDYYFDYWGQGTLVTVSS VL: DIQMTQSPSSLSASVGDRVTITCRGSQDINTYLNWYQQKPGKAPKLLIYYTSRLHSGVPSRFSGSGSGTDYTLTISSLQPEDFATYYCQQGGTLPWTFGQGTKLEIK
6. S7AB-H8.17 (antibody, V domains shown) VH: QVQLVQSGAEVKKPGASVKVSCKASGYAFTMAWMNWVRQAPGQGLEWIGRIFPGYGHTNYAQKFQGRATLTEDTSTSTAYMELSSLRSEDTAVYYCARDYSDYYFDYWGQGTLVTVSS VL: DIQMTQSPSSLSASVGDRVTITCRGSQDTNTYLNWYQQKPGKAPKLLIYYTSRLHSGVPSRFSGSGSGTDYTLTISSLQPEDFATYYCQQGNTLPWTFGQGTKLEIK

**Result**
4.08e-05 s⁻¹
0.000125 s⁻¹
4.19e-05 s⁻¹
3.51e-05 s⁻¹
2.81e-05 s⁻¹
0.000104 s⁻¹

**Query** Record request: koff value, item S7AB-H8.11 (antibody, V domains shown) VH: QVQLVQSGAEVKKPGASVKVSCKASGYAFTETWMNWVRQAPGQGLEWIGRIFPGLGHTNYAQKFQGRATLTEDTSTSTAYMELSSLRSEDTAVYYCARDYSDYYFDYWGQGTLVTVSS VL: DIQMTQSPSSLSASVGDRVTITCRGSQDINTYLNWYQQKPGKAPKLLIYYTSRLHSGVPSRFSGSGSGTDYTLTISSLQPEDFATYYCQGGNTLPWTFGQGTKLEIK
**Result** 0.000388 s⁻¹
